experiment: Long-term accelerated stability test (Test Example 3), sealed in aluminum foil bags; assay type: physicochemical; details: 40°C-75%RH, 3 months
Structures can show the parent of a compound that is named as a salt.
ATTRIBUTE MEASURED: Purity (%)
# output: number + unit

Task: What value of Purity (%) has been recorded for this entry: O=C(O)[C@@H](Cc1cccc(CN(CCOc2cccc(C[C@H](C(=O)O)[C@H]3CCNC3)c2)Cc2cccc(C[C@H](C(=O)O)[C@H]3CCNC3)c2)c1)[C@H]1CCNC1 [hydrochloride (1:1) crystal form a]
Output: 95.2%

Task: Entry O=C(O)[C@@H](Cc1cccc(CN(CCOc2cccc(C[C@H](C(=O)O)[C@H]3CCNC3)c2)Cc2cccc(C[C@H](C(=O)O)[C@H]3CCNC3)c2)c1)[C@H]1CCNC1 [hydrochloride (1:1) amorphous form] please
Output: 95.3%

Task: Entry Cl.Cl.Cl.Cl.O=C(O)[C@@H](Cc1cccc(CN(CCOc2cccc(C[C@H](C(=O)O)[C@H]3CCNC3)c2)Cc2cccc(C[C@H](C(=O)O)[C@H]3CCNC3)c2)c1)[C@H]1CCNC1 [hydrochloride (1:4) amorphous form] please
Output: 99.8%

Task: Entry O=C(O)[C@@H](Cc1cccc(CN(CCOc2cccc(C[C@H](C(=O)O)[C@H]3CCNC3)c2)Cc2cccc(C[C@H](C(=O)O)[C@H]3CCNC3)c2)c1)[C@H]1CCNC1 [hydrochloride (1:1) crystal form e] please
Output: 99.9%

====

assay: Long-term accelerated stability test (Test Example 3), sealed in aluminum foil bags; type: physicochemical; conditions: 40°C-75%RH, 1 month
Counter-ions that a name gives are not always drawn.
ATTRIBUTE MEASURED: Crystal form

Cl.Cl.Cl.Cl.O=C(O)[C@@H](Cc1cccc(CN(CCOc2cccc(C[C@H](C(=O)O)[C@H]3CCNC3)c2)Cc2cccc(C[C@H](C(=O)O)[C@H]3CCNC3)c2)c1)[C@H]1CCNC1 [hydrochloride (1:4) amorphous form]	Deliquescent
O=C(O)[C@@H](Cc1cccc(CN(CCOc2cccc(C[C@H](C(=O)O)[C@H]3CCNC3)c2)Cc2cccc(C[C@H](C(=O)O)[C@H]3CCNC3)c2)c1)[C@H]1CCNC1 [hydrochloride (1:1) crystal form a]	Deliquescent

====

Field: Purity (%). Provide a value for each of the compounds that follow.
experiment: Long-term accelerated stability test (Test Example 3), sealed in aluminum foil bags; type: physicochemical; details: 40°C-75%RH, 14 days
Where a name gives a salt, the structure may show the parent alone.

Task: What value of Purity (%) has been recorded for this entry: O=C(O)[C@@H](Cc1cccc(CN(CCOc2cccc(C[C@H](C(=O)O)[C@H]3CCNC3)c2)Cc2cccc(C[C@H](C(=O)O)[C@H]3CCNC3)c2)c1)[C@H]1CCNC1 [hydrochloride (1:1) amorphous form]
Output: 98.1%

Task: Entry O=C(O)[C@@H](Cc1cccc(CN(CCOc2cccc(C[C@H](C(=O)O)[C@H]3CCNC3)c2)Cc2cccc(C[C@H](C(=O)O)[C@H]3CCNC3)c2)c1)[C@H]1CCNC1 [hydrochloride (1:1) crystal form a] please
Output: 98.8%

Task: Entry O=C(O)[C@@H](Cc1cccc(CN(CCOc2cccc(C[C@H](C(=O)O)[C@H]3CCNC3)c2)Cc2cccc(C[C@H](C(=O)O)[C@H]3CCNC3)c2)c1)[C@H]1CCNC1 [hydrochloride (1:1) crystal form e] please
Output: 99.9%

Task: Entry Cl.Cl.Cl.Cl.O=C(O)[C@@H](Cc1cccc(CN(CCOc2cccc(C[C@H](C(=O)O)[C@H]3CCNC3)c2)Cc2cccc(C[C@H](C(=O)O)[C@H]3CCNC3)c2)c1)[C@H]1CCNC1 [hydrochloride (1:4) amorphous form] please
Output: 99.8%
